Every entry's value here was drawn from patent US7431953B2.

test system: rat-derived basophils (RBL-2H3); assay: β-Hexosaminidase release-inhibition assay; format: cell-based; details: antigen (DNP-BSA)-stimulated RBL-2H3; FIG. 7, FIG. 8
measured parameter: Effect of inhibiting β-hexosaminidase release

{"compound": "CC[C@H](CC[C@@H](C)[C@H]1CCC2[C@@H]3CCC4=CC(=O)CC[C@]4(C)C3CC[C@@]21C)C(C)C (stereo partly shown) [stigmast-4-en-3-one]", "recorded measurement": "roughly confirmed"}
{"compound": "CC[C@H](/C=C/[C@@H](C)[C@H]1CCC2[C@@H]3CCC4=CC(=O)CC[C@]4(C)C3CC[C@@]21C)C(C)C (stereo partly shown) [stigmasta-4,22-dien-3-one]", "recorded measurement": "roughly confirmed"}
{"compound": "CC[C@H](CC[C@@H](C)[C@H]1CC[C@H]2[C@@H]3CC(=O)C4=CC(=O)CC[C@]4(C)[C@H]3CC[C@]12C)C(C)C [stigmast-4-ene-3,6-dione]", "recorded measurement": "roughly confirmed"}
